system: NOMO1; assay: cell viability relative to DMSO control; higher = less cytotoxic; details: HPLM + 10% dialyzed FBS; 48 h; 0.00702 µM
Each entry below carries its recorded cell viability.
Write down the numeric answer in % and omit the unit.

O=C([O-])C(O)Cc1ccc(O)c(O)c1 (stereo not drawn) :: 108
COc1c(C)cnc(Cn2cnc3c(Cl)nc(N)nc32)c1C :: 138
CC(C)OC(=O)OCOP(=O)(CO[C@H](C)Cn1cnc2c(N)ncnc21)OCOC(=O)OC(C)C.O=C(O)C=CC(=O)O :: 120

Would you kindly share the measured cell viability for Cc1ccccc1N1C(=O)c2cc([S+](N)(=O)[O-])c(Cl)cc2NC1C (stereo not drawn) ?
121

Which measured cell viability value corresponds to `OC(=O)C1=CC=C(NC2=NC3=C(C\N=C(/C4=CC(=CC=C34)Cl)C5=C(F)C=CC=C5F)C=N2)C=C1` ?
104

Request the reported cell viability associated with `CC\1=C/C=C\C=[N]1[Pt](N)(Cl)Cl`
111

Give its cell viability value. Item: `COC1=CC=CC2=C1C(=NC(=N2)C3=CC=CS3)NN4C(=O)\C=C(C)/C4=O`
94

Need cell viability, item `Cn1c(=O)c2c(ncn2C)n(C)c1=O.O=C(O)CC(O)(CC(=O)O)C(=O)O`
123

====

Some compounds, each annotated with its measured AUC of viability dose-response curve.
test system: NOMO1; experiment: AUC of viability dose-response curve (% viability x log10 dose units); higher = less sensitive; settings: RPMI 5 mM glucose + 10% FBS; 48 h

C/C=C(/C)C(=O)O[C@H]1C(C)=C2[C@H]([C@@H]1OC(=O)CCCCCCC)[C@@](C)(OC(C)=O)C[C@H](OC(=O)CCC)[C@@]1(O)[C@H]2OC(=O)[C@@]1(C)O :: 224

Please report the recorded AUC of viability dose-response curve for `NC1(C(=O)N[C@@H](CCO)c2ccc(Cl)cc2)CCN(c2ncnc3[nH]ccc23)CC1` .
413

Entry under review: CC1CCC(C(=O)N(c2cc(C#CC(C)(C)C)sc2C(=O)O)C2CCC(O)CC2)CC1 (configuration not stated) . Reported AUC of viability dose-response curve?
408

Entry `COc1ccc(-c2cc3nccn3c(Nc3ncccc3C(N)=O)n2)cc1OC` : reported AUC of viability dose-response curve = ?
476

GET /values?readout=AUC of viability dose-response curve&item= `Oc1ccc2c3c1O[C@H]1c4[nH]c5c(c4C[C@@]4(O)[C@@H](C2)N(CC2CC2)CC[C@]314)C[C@@]1(O)[C@H]2Cc3ccc(O)c4c3[C@@]1(CCN2CC1CC1)[C@H]5O4`
443

Fill in the blank: the reported AUC of viability dose-response curve of `CC[C@H](CC[C@@H](C)[C@H]1CC[C@H]2[C@@H]3C\C=C/4C[C@@H](O)CC[C@]4(C)[C@H]3CC[C@]12C)C(C)C` is ____.
449

Which AUC of viability dose-response curve is reported for this compound? `NCC1(CC(=O)O)CCCCC1`
442

====

tested on: NOMO1; assay: cell viability relative to DMSO control; higher = less cytotoxic; settings: RPMI 5 mM glucose + 10% FBS; 48 h; 0.0211 µM
TEST_READOUT: cell viability
Give the value; after it, write the unit.

C\C1=C\C(=O)OC2=C1C=CC(=C2)O :: 111%
COC1=NC(=NC(=C1N\C2=N\CCN2)Cl)C :: 93.1%
CC1(C)CC(=O)c2c(C(F)(F)F)nn(-c3ccc(C(N)=O)c(NC4CCC(O)CC4)c3)c2C1 (centres undefined) :: 84.2%
CC(C)n1nc(-c2cc3cc(O)ccc3[nH]2)c2c(N)ncnc21 :: 105%
CC1(C)Cc2c(-c3ccccc3)c(-c3ccc(Cl)cc3)c(CC(=O)O)n2C1 :: 124%

// returns reported cell viability for input `ClC1=C(N\C2=N\CCN2)C3=NSN=C3C=C1`
123%

Find the recorded cell viability belonging to CC(=O)O[C@H]1C(=O)[C@]2(C)[C@@H](O)C[C@H]3OC[C@@]3(OC(C)=O)C2[C@H](OC(=O)C4=CC=CC=C4)[C@]5(O)C[C@H](OC(=O)[C@H](O)[C@@H](NC(=O)C6=CC=CC=C6)C7=CC=CC=C7)\C(=C1/C5(C)C)C (some centres undefined) and report it.
25.4%

Recorded cell viability of COC1=C(N2CCNC(C)C2)C(=CC3=C1N(\C=C(C(O)=O)/C3=O)C4CC4)F (centres undefined) , please.
99.5%

For the molecule shown here, COC[C@H]1OC(=O)C2=COC3=C2[C@@]1(C)\C4=C(C5CCC(=O)[C@@]5(C)C[C@H]4OC(C)=O)/C3=O (some centres undefined) , give the reported cell viability.
19.6%

Numbers sourced from the supplement of paper PMC11451515.
